Where do the numbers come from? From patent US20230303994.

target: pre-pro-human insulin
RECORDED ENDPOINT: Selectivity

Can you share its Selectivity? I mean this protein: trypsin variant SEQ ID NO: 62 (protein) IVGGYTCAANSIPYQVSLNSGSHRCGGSLINSQWVVSAAHCYKSRIQVRLGEHNIDVLEGNEQFINAAKIITHPNFNGNTLDNDIMLIKLSSPATLNSRVATVSLPRSCAAAGTECLISGWGNTKSSGSSVPSLLQCLKAPVLSDSSCKSSYPGQITGNMICVGFLEGGKDACQGDSGGPVVCNGQLQGIVSSGYGCAQKNKPGVYTKVCNYVNWIQQTIAAN
>90%

Try the protein trypsin variant SEQ ID NO: 36 (protein) IVGGYTCAANSIPYQVSLNSGSHRCGGSLINSQWVVSAAHCYKSRIQVRLGEHNIDVLEGNEQFINAAKIITHPNFNGNTLDNDIMLIKLSSPATLNSRVATVSLPRSCAAAGTECLISGWGNTKSSGSSMPSLLQCLKAPVLSDSSCKSSYPGQITGNMICVGFLEGGKDACQGDSGGPVVCNGQLQGIVSSGYGCAQKNKPGVYTKVCNYVNWIQQTIAAN
>90%
